target: T1, Human EphA2 (Ecto) (Human, UniProt P29317 24-537); experiment: FP competition; tracer Reference Compound C
T1 construct: extracellular domain; in-house)
T1 sequence (P29317 24-537): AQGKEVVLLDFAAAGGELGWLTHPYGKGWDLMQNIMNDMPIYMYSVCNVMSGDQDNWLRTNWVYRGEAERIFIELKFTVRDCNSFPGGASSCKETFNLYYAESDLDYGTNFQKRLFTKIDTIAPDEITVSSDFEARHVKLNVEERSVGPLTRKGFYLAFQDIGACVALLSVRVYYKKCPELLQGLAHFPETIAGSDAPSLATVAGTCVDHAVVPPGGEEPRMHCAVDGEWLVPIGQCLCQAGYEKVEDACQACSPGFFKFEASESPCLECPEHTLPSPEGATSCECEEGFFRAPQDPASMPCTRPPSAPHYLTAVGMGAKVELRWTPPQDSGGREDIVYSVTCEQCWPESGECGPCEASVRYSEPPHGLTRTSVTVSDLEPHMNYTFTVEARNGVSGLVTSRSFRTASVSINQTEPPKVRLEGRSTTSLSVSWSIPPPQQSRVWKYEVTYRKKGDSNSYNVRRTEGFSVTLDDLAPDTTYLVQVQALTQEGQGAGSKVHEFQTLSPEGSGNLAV
Starred links: 1 amine or outer side, 2 acyl side, 3 side chain; linkers in the order of their positions; H or OH if unused. Positions of bridges follow the written chain, without caps; N, C: chain ends. No end group written: not given here. TATA = O=C(CC[*:1])N1CN(C(=O)CC[*:2])CN(C(=O)CC[*:3])C1
MEASURED PROPERTY: Ki (nM)
Supply the numeric figure in nM, leaving out any unit text.

Find the recorded Ki belonging to ACGFMGLVPCNVFCA (linker 2-10-14 via TATA (inferred)) [Bicycle Compound Number 45 (TATA scaffold), ACGFMGLVPCNVFCA] and report it. 142

Find the recorded Ki belonging to ACVPDRRCAFENVCVDH (linker 2-8-14 via TATA) [Bicycle Compound Number 25 (TATA scaffold), ACVPDRRCAFENVCVDH] and report it. 97.3

Find the recorded Ki belonging to ACVPDRRCAYMNVCA (linker 2-8-14 via TATA) [Bicycle Compound Number 16 (TATA scaffold), ACVPDRRCAYMNVCA] and report it. 70

Find the recorded Ki belonging to ACVPDRRCAFQDVCDHE (linker 2-8-14 via TATA) [Bicycle Compound Number 27 (TATA scaffold), ACVPDRRCAFQDVCDHE] and report it. 159

Find the recorded Ki belonging to ACPLVNPLCMIGNWTCA (linker 2-9-16 via TATA (inferred)) [Bicycle Compound Number 60 (TATA scaffold), ACPLVNPLCMIGNWTCA] and report it. 96.2

Find the recorded Ki belonging to ACGFMGLVPCEVHCA (linker 2-10-14 via TATA) [Bicycle Compound Number 41 (TATA scaffold), ACGFMGLVPCEVHCA] and report it. 155
